Origin of the recorded values: ChEMBL document CHEMBL1153299

Recorded Ka for the following molecules
- assay-target: Carbonic anhydrase (Saccharomyces cerevisiae S288c) (UniProt P53615)
- Sequence (whole entry): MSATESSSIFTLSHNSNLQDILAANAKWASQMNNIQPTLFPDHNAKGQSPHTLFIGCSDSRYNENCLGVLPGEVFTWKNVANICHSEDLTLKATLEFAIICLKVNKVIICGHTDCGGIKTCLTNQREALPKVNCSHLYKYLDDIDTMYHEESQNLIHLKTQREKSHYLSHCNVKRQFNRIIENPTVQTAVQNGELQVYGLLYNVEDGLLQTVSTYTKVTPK
- test: Activation of yeast recombinant CA by stopped-flow CO2 hydrase method

given-smiles: N[C@@H](Cc1c[nH]c2ccccc12)C(=O)O
Ka, µM: 91
--
given-smiles: NCCc1c[nH]c2ccc(O)cc12
Ka, µM: 15
--
given-smiles: NCCN1CCNCC1
Ka, µM: 9.3
--
given-smiles: N[C@H](Cc1c[nH]cn1)C(=O)O
Ka, µM: 85
--
given-smiles: NCCN1CCOCC1
Ka, µM: 10.2
--
given-smiles: N[C@@H](Cc1c[nH]cn1)C(=O)O
Ka, µM: 82
--
given-smiles: N[C@@H](Cc1ccc(O)c(O)c1)C(=O)O
Ka, µM: 90
--
given-smiles: NCc1ccccn1
Ka, µM: 16.2
--
given-smiles: NCCc1ccc(O)c(O)c1
Ka, µM: 13.1
--
given-smiles: NCCc1c[nH]cn1
Ka, µM: 20.4
--
given-smiles: N[C@H](Cc1ccc(O)c(O)c1)C(=O)O
Ka, µM: 89
--
given-smiles: N[C@@H](Cc1ccc(O)cc1)C(=O)O
Ka, µM: 85
--
given-smiles: CNC[C@@H](O)c1ccc(O)c(O)c1
Ka, µM: 0.95
--
given-smiles: N[C@H](Cc1c[nH]c2ccccc12)C(=O)O
Ka, µM: 90
--
given-smiles: NCCc1ccccn1
Ka, µM: 11.2
--
given-smiles: Nc1ccc(C[C@H](N)C(=O)O)cc1
Ka, µM: 21.3
